The values you see were collected from patent EP4585599A1.

This listing pairs molecules with measured pIC50.
# Target Entity: helicase domain of the Pol θ protein (Homo sapiens, UniProt O75417)
# Construct: The helicase domain of the Pol θ protein was purified from insect protein expression system; made in house; host or cells: insect protein expression system
# Sequence (O75417 102-554 limits assumed): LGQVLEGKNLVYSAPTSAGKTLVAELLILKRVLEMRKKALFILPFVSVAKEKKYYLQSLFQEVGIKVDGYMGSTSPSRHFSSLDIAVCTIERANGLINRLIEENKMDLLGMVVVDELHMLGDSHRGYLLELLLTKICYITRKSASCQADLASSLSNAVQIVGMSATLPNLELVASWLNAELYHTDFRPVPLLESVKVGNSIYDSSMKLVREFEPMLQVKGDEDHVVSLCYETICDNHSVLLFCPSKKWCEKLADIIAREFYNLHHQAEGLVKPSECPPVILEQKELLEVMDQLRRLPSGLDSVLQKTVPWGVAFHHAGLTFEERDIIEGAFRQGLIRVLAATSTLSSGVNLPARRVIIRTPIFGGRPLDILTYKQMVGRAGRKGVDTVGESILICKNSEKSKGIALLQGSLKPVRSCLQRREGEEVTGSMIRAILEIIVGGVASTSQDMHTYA
# Test Name: Biochemical Activity Assay (ADP Glo Assay) of Pol θ inhibitor, ATPase activity
# Test Context: ADP-Glo assay, ATPase activity of Pol θ helicase domain, ssDNA substrate; read-out: Biochemical assay IC50
In textbook form, pIC50 equals minus log to base ten of the concentration in mol/L.

- Molecule: "COc1cnc(Cl)c(F)c1-c1cc(C)ncc1C(=O)Nc1nc2cnc(-c3c(C)nnn3C)c(F)c2s1 [Example 217]"
  pIC50: 8.44
- Molecule: "COc1cnc(Cl)cc1-c1cc(C)ncc1C(=O)Nc1nc2cnc(N3CC4(CC(O)C4)C3)nc2s1 [Example 142]"
  pIC50: 8.35
- Molecule: "COc1cnc(Cl)cc1-c1cc(C)ncc1C(=O)Nc1nc2ncc(N3CCC(O)CC3)cc2s1 [Example 59]"
  pIC50: 8.44
- Molecule: "COc1cnc(Cl)cc1-c1cc(C)ncc1C(=O)Nc1nc2cnc(-c3[nH]ncc3C)cc2s1 [Example 161]"
  pIC50: 8.47

Could you now consider this next molecule?
Req: Given the molecule COc1cnc(Cl)cc1-c1cc(C)ncc1C(=O)Nc1nc2ncc(C3=CCC(N)CC3)cc2s1 (centres unmarked) [Example 21] , what is its reported pIC50?
Resp: 8.46
